Test system: HCC-2998 colon
procedure.details: NCI tumour cell line growth inhibition, 48 h
property.label: TGI (µM)

[[record]]
molecule = "CSc1ncnc2c1cnn2Cc1cn(CCCCO)nn1"
property_label = "TGI"
censoring_sign = ">"
data_value = 100

[[record]]
molecule = "CC(C)c1ccc(/C=C2\\N=C(c3ccc([N+](=O)[O-])cc3)OC2=O)cc1"
property_label = "TGI"
censoring_sign = ">"
data_value = 100

[[record]]
molecule = "CC(C)(CN1CCCCC1)C(=O)/C=C/c1ccc(Cl)c(Cl)c1"
property_label = "TGI"
censoring_sign = "="
data_value = 3.21

[[record]]
molecule = "COc1cc2ccc1NC(=O)N1CCN(CC1)C(=O)Nc1ccc(cc1OC)-c1ccc(c(OC)c1)NC(=O)N1CCN(CC1)C(=O)Nc1ccc-2cc1OC"
property_label = "TGI"
censoring_sign = ">"
data_value = 100

[[record]]
molecule = "CC(=O)OC1CC2C(C)(C)C(=O)C=C[C@]2(C)C2CC[C@]3(C)C(OCC(=O)[C@H]3c3ccoc3)[C@]12C (some centres undefined)"
property_label = "TGI"
censoring_sign = "="
data_value = 24.7

[[record]]
molecule = "CCOC(=O)/C(SC#N)=C(/N)N1CCCC1"
property_label = "TGI"
censoring_sign = ">"
data_value = 100

[[record]]
molecule = "COc1ccc(Nc2nc3c(N)cc(C(F)(F)F)cc3nc2-c2ccccc2)cc1OC"
property_label = "TGI"
censoring_sign = "="
data_value = 89.6

[[record]]
molecule = "O=C(Nc1ccc2ncccc2c1)c1cc2c(cc1Cl)Sc1nccn1S2(=O)=O"
property_label = "TGI"
censoring_sign = "="
data_value = 27.8

[[record]]
molecule = "[Cl-].[Nd+3].[O-]/N=C(\\c1ccccc1)c1ccccn1.[O-]/N=C(\\c1ccccc1)c1ccccn1.[O-]/N=C(\\c1ccccc1)c1ccccn1"
property_label = "TGI"
censoring_sign = ">"
data_value = 100


* * *

Tested on: NCI-H460 lung
procedure.details: NCI tumour cell line growth inhibition, 48 h
Reported TGI is given for each of the following compounds.
property.label: TGI

[[record]]
compound = "COc1cccc(N=Cc2cc(OC)c(OC)c(OC)c2)c1"
property_label = "TGI"
data_value = "> 100 µM"

[[record]]
compound = "C=C1C(=O)OC2/C=C(/CO)C3(O)CC(O)C(C)(CC(OC(=O)/C(C)=C/C)C12)O3 (stereo not given)"
property_label = "TGI"
data_value = "48.9 µM"

[[record]]
compound = "CCN(CC)CCCNc1[nH]ncc2cc3c(nc4ccccc43)c(C)c12"
property_label = "TGI"
data_value = "18.1 µM"

[[record]]
compound = "NC(=O)NN/C=C(/C=Nc1ccccc1)[N+](=O)[O-]"
property_label = "TGI"
data_value = "> 100 µM"

[[record]]
compound = "CC(=O)N1C(Nc2cnc3ccccc3c2)CCN1c1ccccc1 (stereo not given)"
property_label = "TGI"
data_value = "> 10 µM"

[[record]]
compound = "S=C1N=C2C(=N1)n1c3c(c4ccccc41)CCCC23 (stereo not given)"
property_label = "TGI"
data_value = "> 100 µM"

[[record]]
compound = "NC1=NS(=O)(=O)Nc2nc(-c3ccc(Cl)cc3)[nH]c21"
property_label = "TGI"
data_value = "> 100 µM"

[[record]]
compound = "Cc1cc(Nc2ccc3c(c2)OCO3)c2cc3c(cc2n1)OCO3"
property_label = "TGI"
data_value = "12.3 µM"

[[record]]
compound = "COC(=O)c1cc(C)ccc1/C=C1\\Cc2cccc(C)c2C1=O"
property_label = "TGI"
data_value = "> 100 µM"

[[record]]
compound = "COc1cc2ccc1NC(=O)N1CCN(CC1)C(=O)Nc1ccc(cc1OC)-c1ccc(c(OC)c1)NC(=O)N1CCN(CC1)C(=O)Nc1ccc-2cc1OC"
property_label = "TGI"
data_value = "> 100 µM"

[[record]]
compound = "O=C(Nc1ccc([As]=[As]c2ccc(NC(=O)c3ccccc3)cc2)cc1)c1ccccc1 (stereo not given)"
property_label = "TGI"
data_value = "4.51 µM"

[[record]]
compound = "CC(=O)OC1CC2C(C)(C)C(=O)C=C[C@]2(C)C2CC[C@]3(C)C(OCC(=O)[C@H]3c3ccoc3)[C@]12C (stereo not given in full)"
property_label = "TGI"
data_value = "15.2 µM"

[[record]]
compound = "CC(=O)OC1Oc2ccccc2-c2oc(=O)c(-c3ccc(F)cc3)cc21 (stereo not given)"
property_label = "TGI"
data_value = "> 100 µM"

[[record]]
compound = "COC(=O)C1Cc2c([nH]c3ccccc23)C(c2ccccc2O)N1 (stereo not given)"
property_label = "TGI"
data_value = "47.1 µM"

[[record]]
compound = "O=C(CCc1ccc(O)c(O)c1)OCCc1ccccc1"
property_label = "TGI"
data_value = "> 100 µM"

[[record]]
compound = "C[Si](C)(c1ccccc1)C1CC(=O)CC(=O)C1"
property_label = "TGI"
data_value = "> 100 µM"

[[record]]
compound = "Nc1ccc(I)cn1"
property_label = "TGI"
data_value = "> 100 µM"

[[record]]
compound = "O=Cc1cn(Cc2ccc(Cl)cc2)c2ccccc12"
property_label = "TGI"
data_value = "11.2 µM"

[[record]]
compound = "COC1(OC)CC(CO)(CNc2nc(N)nc(Cl)c2C=O)C1"
property_label = "TGI"
data_value = "> 100 µM"

[[record]]
compound = "CO/C(=N\\N=Cc1ccccc1)c1ccncc1"
property_label = "TGI"
data_value = "> 100 µM"

